Just for reference, patent US8987275B2 is where these values come from.

Molecular target: EML4-Alk (Homo sapiens, UniProt Q9UM73)
Construct: EML4 (N-terminal fusion partner); human EML4 would be Q9HC35; the other entry of the earlier key: EML4 (Q9HC35, Echinoderm microtubule-associated protein-like 4)
Sequence (Q9UM73 1058-1620 limits assumed): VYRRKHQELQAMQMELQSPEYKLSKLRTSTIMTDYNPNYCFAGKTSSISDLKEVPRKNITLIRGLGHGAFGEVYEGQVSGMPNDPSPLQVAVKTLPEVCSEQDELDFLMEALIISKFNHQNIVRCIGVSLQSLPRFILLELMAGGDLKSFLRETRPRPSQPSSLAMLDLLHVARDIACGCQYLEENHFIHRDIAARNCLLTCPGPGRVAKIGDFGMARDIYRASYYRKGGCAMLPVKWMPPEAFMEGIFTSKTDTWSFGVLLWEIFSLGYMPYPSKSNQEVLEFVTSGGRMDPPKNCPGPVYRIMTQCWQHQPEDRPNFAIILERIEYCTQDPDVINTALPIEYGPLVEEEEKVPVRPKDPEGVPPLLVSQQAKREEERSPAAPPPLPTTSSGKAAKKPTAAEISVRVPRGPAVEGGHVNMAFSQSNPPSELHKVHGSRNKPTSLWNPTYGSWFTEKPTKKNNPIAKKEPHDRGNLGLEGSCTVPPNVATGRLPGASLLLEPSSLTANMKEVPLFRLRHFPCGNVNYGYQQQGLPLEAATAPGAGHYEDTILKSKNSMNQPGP
Assay: IC50 of compounds against kinase target EML4-Alk (Table I)
# IC50 per record follows

{"COMPOUND": "O=C(NCCN1CCOCC1)c1cccc(-c2ccc3c(NC(=O)C4CC4)n[nH]c3c2)c1 [Compound 7]", "SYSTEM NAME": "EML4-Alk (Homo sapiens, UniProt Q9UM73)", "QUALIFIER": ">", "IC50 (µM)": 10}
{"COMPOUND": "CONC(=O)c1cccc(-c2ccc3c(NC(=O)C4CC4)n[nH]c3c2)c1 [Compound 11]", "SYSTEM NAME": "EML4-Alk (Homo sapiens, UniProt Q9UM73)", "QUALIFIER": ">", "IC50 (µM)": 10}
{"COMPOUND": "COc1cc(Nc2ccc3c(NC(=O)C4CC4)n[nH]c3c2)cc(C(=O)Nc2ccc(CN3CCN(C)CC3)c(C(F)(F)F)c2)c1 [Compound 26]", "SYSTEM NAME": "EML4-Alk (Homo sapiens, UniProt Q9UM73)", "QUALIFIER": ">", "IC50 (µM)": 10}
{"COMPOUND": "Cc1ccc(C(=O)Nc2cccc(C(F)(F)F)c2)cc1-c1ccc2c(NC(=O)C3CC3)n[nH]c2c1 [Compound 15]", "SYSTEM NAME": "EML4-Alk (Homo sapiens, UniProt Q9UM73)", "QUALIFIER": "=", "IC50 (µM)": 8.47}
{"COMPOUND": "CCN1CCN(Cc2ccc(NC(=O)c3cccc(-c4ccc5c(NC(=O)c6ccccc6)n[nH]c5c4)c3)cc2C(F)(F)F)CC1 [Compound 3]", "SYSTEM NAME": "EML4-Alk (Homo sapiens, UniProt Q9UM73)", "QUALIFIER": "=", "IC50 (µM)": 1.67}
{"COMPOUND": "CCN1CCN(Cc2ccc(NC(=O)c3ccc(C)c(-c4ccc5c(NC(=O)C6CC6)n[nH]c5c4)c3)cc2C(F)(F)F)CC1 [Compound 13]", "SYSTEM NAME": "EML4-Alk (Homo sapiens, UniProt Q9UM73)", "QUALIFIER": "=", "IC50 (µM)": 1.06}
{"COMPOUND": "CCN1CCN(Cc2ccc(NC(=O)c3ccc(C)c(-c4ccc5c(NC(=O)C6CC6)n[nH]c5c4)c3)cc2)CC1 [Compound 14]", "SYSTEM NAME": "EML4-Alk (Homo sapiens, UniProt Q9UM73)", "QUALIFIER": "=", "IC50 (µM)": 5.6}

---

Target: Bcr-Abl (Homo sapiens)
Construct: BCR (N-terminal fusion partner, p210 form, B2A2 junction); the other entry of the earlier key: BCR (P11274, Breakpoint cluster region protein)
Sequence (P00519 with tags, fused parts or gaps): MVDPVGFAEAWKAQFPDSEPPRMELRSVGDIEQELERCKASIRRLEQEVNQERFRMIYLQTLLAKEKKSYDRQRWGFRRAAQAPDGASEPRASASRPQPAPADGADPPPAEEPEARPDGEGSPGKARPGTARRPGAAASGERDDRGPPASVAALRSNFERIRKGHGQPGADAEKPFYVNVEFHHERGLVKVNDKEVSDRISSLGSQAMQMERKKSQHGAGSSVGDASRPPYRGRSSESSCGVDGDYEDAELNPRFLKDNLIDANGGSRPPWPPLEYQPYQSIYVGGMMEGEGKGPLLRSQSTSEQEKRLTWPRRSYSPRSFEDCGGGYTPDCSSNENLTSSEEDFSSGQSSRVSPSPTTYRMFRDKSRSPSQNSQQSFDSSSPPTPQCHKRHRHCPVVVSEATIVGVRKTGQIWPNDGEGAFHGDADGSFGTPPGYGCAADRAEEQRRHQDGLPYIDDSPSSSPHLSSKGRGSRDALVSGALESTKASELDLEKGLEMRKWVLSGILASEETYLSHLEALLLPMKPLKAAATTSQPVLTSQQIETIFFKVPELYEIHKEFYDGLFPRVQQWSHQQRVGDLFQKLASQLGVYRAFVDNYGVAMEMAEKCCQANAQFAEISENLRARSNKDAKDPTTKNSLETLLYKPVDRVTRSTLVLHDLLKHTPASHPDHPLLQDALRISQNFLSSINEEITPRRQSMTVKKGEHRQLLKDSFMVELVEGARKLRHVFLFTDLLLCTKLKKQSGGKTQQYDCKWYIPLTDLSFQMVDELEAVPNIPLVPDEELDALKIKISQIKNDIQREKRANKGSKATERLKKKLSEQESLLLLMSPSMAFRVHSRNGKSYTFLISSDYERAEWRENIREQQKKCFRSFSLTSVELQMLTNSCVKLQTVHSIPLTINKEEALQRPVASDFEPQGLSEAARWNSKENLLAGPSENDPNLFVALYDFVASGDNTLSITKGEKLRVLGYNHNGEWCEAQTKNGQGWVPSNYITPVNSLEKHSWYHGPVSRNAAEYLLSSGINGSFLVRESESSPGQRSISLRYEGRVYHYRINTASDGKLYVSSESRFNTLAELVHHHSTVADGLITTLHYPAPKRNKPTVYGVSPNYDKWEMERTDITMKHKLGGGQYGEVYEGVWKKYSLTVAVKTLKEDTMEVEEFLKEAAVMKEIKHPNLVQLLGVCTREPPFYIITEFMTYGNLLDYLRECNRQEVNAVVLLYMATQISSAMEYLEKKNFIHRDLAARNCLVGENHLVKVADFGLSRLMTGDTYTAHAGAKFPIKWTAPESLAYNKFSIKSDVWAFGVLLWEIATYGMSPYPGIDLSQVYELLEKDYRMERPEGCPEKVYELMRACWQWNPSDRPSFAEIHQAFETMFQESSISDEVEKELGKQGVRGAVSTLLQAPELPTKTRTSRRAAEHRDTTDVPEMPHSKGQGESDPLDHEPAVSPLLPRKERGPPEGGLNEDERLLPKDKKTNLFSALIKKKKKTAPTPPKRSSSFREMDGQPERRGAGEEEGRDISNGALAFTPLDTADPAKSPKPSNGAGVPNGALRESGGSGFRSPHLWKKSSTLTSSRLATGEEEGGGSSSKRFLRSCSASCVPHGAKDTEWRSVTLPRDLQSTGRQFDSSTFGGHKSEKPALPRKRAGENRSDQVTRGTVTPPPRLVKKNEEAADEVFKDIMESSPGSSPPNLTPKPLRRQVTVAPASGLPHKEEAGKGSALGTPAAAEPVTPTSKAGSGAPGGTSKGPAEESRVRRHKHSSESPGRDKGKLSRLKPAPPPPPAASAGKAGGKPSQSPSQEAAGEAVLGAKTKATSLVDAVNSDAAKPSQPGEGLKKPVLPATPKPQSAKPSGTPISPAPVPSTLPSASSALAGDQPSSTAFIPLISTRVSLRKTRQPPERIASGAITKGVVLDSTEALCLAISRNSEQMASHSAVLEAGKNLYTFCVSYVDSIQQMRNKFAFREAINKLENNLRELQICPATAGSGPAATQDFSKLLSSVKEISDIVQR
Assay: IC50 of compounds against kinase target Bcr-Abl (Table I)
pIC50: −log10 of the molar value.
Label rule, in plain words: pIC50 of 6 and up is criterion met, under 6 is criterion not met.

{"COMPOUND": "CNC(=O)c1cccc(-c2ccc3c(NC(=O)C4CC4)n[nH]c3c2)c1 [Compound 12]", "GROUP": "criterion not met"}
{"COMPOUND": "CCN1CCN(Cc2ccc(C(=O)Nc3cccc(-c4ccc5c(N)n[nH]c5c4)c3)cc2C(F)(F)F)CC1 [Compound 20]", "GROUP": "criterion met"}
{"COMPOUND": "CCN1CCN(Cc2ccc(NC(=O)c3ccc(C)c(-c4ccc5c(NC(=O)C6CC6)n[nH]c5c4)c3)cc2C(F)(F)F)CC1 [Compound 13]", "GROUP": "criterion met"}
{"COMPOUND": "CONC(=O)c1cccc(-c2ccc3c(NC(=O)C4CC4)n[nH]c3c2)c1 [Compound 11]", "GROUP": "criterion not met"}
{"COMPOUND": "CCN1CCN(Cc2ccc(C(=O)Nc3cccc(-c4ccc5c(NC(=O)C6CC6)n[nH]c5c4)c3)cc2C(F)(F)F)CC1 [Compound 23]", "GROUP": "criterion not met"}
{"COMPOUND": "CNc1n[nH]c2cc(-c3cccc(C(=O)Nc4cc(-n5cnc(C)c5)cc(C(F)(F)F)c4)c3)ccc12 [Compound 18]", "GROUP": "criterion not met"}
{"COMPOUND": "CCN1CCN(Cc2ccc(NC(=O)c3cccc(-c4ccc5c(NC(=O)c6ccccc6)n[nH]c5c4)c3)cc2C(F)(F)F)CC1 [Compound 3]", "GROUP": "criterion met"}
{"COMPOUND": "O=C(NCCN1CCOCC1)c1cccc(-c2ccc3c(NC(=O)C4CC4)n[nH]c3c2)c1 [Compound 7]", "GROUP": "criterion not met"}
